assay: viability loss in pontine glioma line – cell-based, SU-DIPG-IV, MIPE4.0, CellTiter-Glo, qHTS, dose response (AID 1347063); conditions: CellTiter-Glo ATP luminescence;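 also: compound exposure lasted 48 hours before the viability readout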
Results filed as inconclusive are left out. The source made the active and inactive calls. The limit is not given here; nearly all actives have AC50 up to about 30 µM.
Labels: active, inactive

[
  {
    "molecule": "C[C@H](NCc1ccc2c(c1)nc(NC(=O)c1ccc(-c3cn[nH]c3)s1)n2CCc1ccccc1)C(C)(C)C",
    "classLabel": "active"
  },
  {
    "molecule": "C=CC(=O)Nc1cc(NC(=O)c2ccc(C)c(NC(=O)c3ccno3)c2)cc(C(F)(F)F)c1",
    "classLabel": "active"
  },
  {
    "molecule": "CC(O)C1C(=O)N2C(C(=O)O)=C(SC3CNC(C(=O)N(C)C)C3)C(C)C12 (stereo not given)",
    "classLabel": "inactive"
  },
  {
    "molecule": "CCc1cnn2c(NCc3ccc[n+]([O-])c3)cc(N3CCCC[C@H]3CCO)nc12",
    "classLabel": "active"
  },
  {
    "molecule": "CC(C)n1nc(-c2cc3cc(O)ccc3[nH]2)c2c(N)ncnc21",
    "classLabel": "active"
  }
]

###

assay: viability loss with induced miR-34 in A549 – imaging, A549 dox-inducible miR-34, nuclei and caspase counts, primary screen (AID 1347080); settings: A549 miR-34 inducible, Hoechst nuclei count, 48 h; hits give low values; cell number ratio, induced over uninduced
The source made the active and inactive calls.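 How the source made its calls: active means compounds whose cell count with miR-34 switched on is under 0.7 times the count with it off; inactive means the rest.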
Entries annotated with measured fold change

[
  {
    "substanceSmiles": "CCCCN1CCC(CCC(=O)c2cc(Cl)c(N)cc2OC)CC1",
    "fold change": "0.973 (inactive)"
  },
  {
    "substanceSmiles": "CCCn1c(=O)[nH]c2nc(-c3ccc(S(=O)(=O)O)cc3)[nH]c2c1=O",
    "fold change": "0.829 (inactive)"
  },
  {
    "substanceSmiles": "NC1=NC(=O)/C(=C/c2ccc(O)cc2)S1",
    "fold change": "1.06 (inactive)"
  },
  {
    "substanceSmiles": "CCc1c(OCCCCCC(C)(C)c2nn[nH]n2)cc(O)cc1C(C)=O",
    "fold change": "1.03 (inactive)"
  },
  {
    "substanceSmiles": "N=C(N)SCCc1ccc(OCc2ccc([N+](=O)[O-])cc2)cc1",
    "fold change": "0.959 (inactive)"
  },
  {
    "substanceSmiles": "CCCCCCCC/C=C\\CCCCCC(=O)OC",
    "fold change": "0.895 (inactive)"
  }
]

###

experiment: viability loss in pontine glioma line – cell-based, SU-DIPG-XVII, MIPE5.0, CellTiter-Glo, qHTS, dose response (AID 1347060); settings: CellTiter-Glo ATP luminescence;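 as to AC50: cells exposed to compound for 48 hours before viability readout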
Records with an inconclusive call do not appear. Calls of active or inactive are those of the source. Cut-off not given; nearly all actives show AC50 up to about 26 µM.
Labels: label 1 (active), label 0 (inactive)

[
  {
    "compound": "Cn1c2ccccc2c2c3c(c4c5ccccc5n(CCC#N)c4c21)CNC3=O",
    "classLabel": "label 1"
  },
  {
    "compound": "CCN(C)S(=O)(=O)Nc1ccc(F)c(C(=O)c2c[nH]c3ncc(-c4cnc(C5CC5)nc4)cc23)c1F",
    "classLabel": "label 1"
  },
  {
    "compound": "COc1nccc(-c2c(-c3ccc(F)cc3)ncn2C2CCNCC2)n1",
    "classLabel": "label 0"
  },
  {
    "compound": "NC(=NCCCCCCN=C(N)N=C(N)Nc1ccc(Cl)cc1)N=C(N)Nc1ccc(Cl)cc1",
    "classLabel": "label 1"
  },
  {
    "compound": "C=CCNc1c(O)cc2c(O)c1C[C@@H](C)C[C@H](OC)[C@H](O)[C@@H](C)/C=C(/C)[C@H](OC(N)=O)[C@@H](OC)/C=C\\C=C(\\C)C(=O)N2",
    "classLabel": "label 1"
  },
  {
    "compound": "CCOC(=O)[C@@H](N)Cc1ccc(-c2cc(O[C@H](c3ccc(Cl)cc3-n3ccc(C)n3)C(F)(F)F)nc(N)n2)cc1",
    "classLabel": "label 1"
  },
  {
    "compound": "C[C@@H]1Cc2c([nH]c3ccccc23)[C@@H](c2c(F)cc(/C=C/C(=O)O)cc2F)N1CC(C)(C)F",
    "classLabel": "label 0"
  },
  {
    "compound": "CCC(C(=O)O)C1CCC(C)C(C(C)C(O)C(C)C(=O)C(CC)C2OC3(C=CC(O)[C@@]4(CC[C@](C)(C5CC[C@@](O)(CC)C(C)O5)O4)O3)C(C)CC2C)O1 (stereo partly drawn)",
    "classLabel": "label 1"
  }
]
